# measured.target: Cellular tumor antigen p53 (Homo sapiens) (UniProt P04637)
# Sequence (P04637 whole entry, looked up): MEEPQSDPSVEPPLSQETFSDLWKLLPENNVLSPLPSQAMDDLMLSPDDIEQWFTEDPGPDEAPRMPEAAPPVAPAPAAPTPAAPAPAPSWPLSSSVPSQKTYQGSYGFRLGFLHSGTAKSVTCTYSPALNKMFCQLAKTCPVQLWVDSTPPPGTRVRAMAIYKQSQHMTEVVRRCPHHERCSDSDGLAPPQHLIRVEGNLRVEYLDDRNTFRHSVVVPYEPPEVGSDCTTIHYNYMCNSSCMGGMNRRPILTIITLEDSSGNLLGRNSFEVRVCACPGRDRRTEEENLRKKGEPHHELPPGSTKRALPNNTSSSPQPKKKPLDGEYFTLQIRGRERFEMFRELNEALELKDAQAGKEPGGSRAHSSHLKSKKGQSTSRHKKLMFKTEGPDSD
# assay.details: TOX21_p53_BLA_p4_ratio: Tox21 HCT-116 p53 Agonism Beta-lactamase Assay, Ratio, Phase 4 (AID 2283601)
Results filed as inconclusive are left out. The source made the active and inactive calls. Rule for the calls: active = hit-call score of the fitted dose curve at least 0.9, where 1 is the maximum; inconclusive = response in the unintended direction; inactive = score below 0.9.
Output constraint: value belongs to active, inactive

Worked examples, 3 molecules total:
| molecule | group |
| --- | --- |
| Cc1cc(=O)[nH]c(C(C)C)n1 | inactive |
| Cc1cc(O)c(C(C)(C)C)cc1C(C)(C)C | active |
| CN(N=O)C(=O)N[C@@H]1[C@@H](O)[C@H](O)[C@@H](CO)O[C@@H]1O | inactive |

In this assay, the call recorded for CC(C)OC(=O)COc1ccc(Cl)cc1Cl was what? inactive

In this assay, the call recorded for CCC(Cc1c(I)cc(I)c(N)c1I)C(=O)O (stereo not drawn) was what? inactive

In this assay, the call recorded for CC(C)CC=C(C=O)c1ccccc1 was what? inactive

In this assay, the call recorded for O=C(c1ccccc1)c1ccc(O)cc1O was what? inactive

In this assay, the call recorded for O=S(=O)(O)c1ccc(Cl)cc1 was what? inactive

* * *

# Read-out: Low-density lipoprotein receptor (LDLR), LDLR (gene 3949)
# assay.details: BSK_CASM3C_LDLR: BioMAP Diversity Plus: CASM3C Assay for Low-density lipoprotein receptor (LDLR) Biomarker Activity (AID 2283045);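 note: LDLR protein level on the cell surface quantified by ELISA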
# details: primary human coronary artery smooth muscle cells; actives raise or lower the signal
Calls of active or inactive are those of the source. The calls were made as follows: active = hit-call score of the fitted dose curve at least 0.9, where 1 is the maximum; inactive = score below 0.9.
Output constraint: value belongs to true (1) (active), false (0) (inactive)

Worked examples, 8 molecules total:
| molecule | group |
| --- | --- |
| CCN(CC)c1ccc(C=O)c(O)c1 | false (0) |
| CC1=CC2C3C=CC(C3)C2C1C (configuration not stated) | false (0) |
| Cc1cc(C)c(O)c(C(C)(C)C)c1 | true (1) |
| O=C(c1ccccc1)c1ccc(O)cc1O | false (0) |
| Brc1nc2ccccc2s1 | false (0) |
| CCOC(C=C(C)CCC=C(C)C)OCC | true (1) |
| O=C(O)C(F)(F)C(F)(F)C(F)(F)OC(F)(F)F | false (0) |
| NCC(F)(F)C(F)(F)C(F)(F)C(F)(F)C(F)(F)C(F)(F)C(F)(F)C(F)(F)F | false (0) |

In this assay, the call recorded for CCN(CC)c1ccc(N=Nc2ccccc2)cc1 was what? false (0)

In this assay, the call recorded for O=C=NCc1cccc(CN=C=O)c1 was what? false (0)

In this assay, the call recorded for COC(F)(C(F)F)C(F)(F)F (configuration not stated) was what? false (0)

In this assay, the call recorded for FC(F)(F)C(F)(F)C(F)(F)C(F)(F)C(F)(F)C(F)(F)C(F)(F)CCI was what? false (0)

In this assay, the call recorded for O=C1c2c(O)ccc(Nc3ccc(CCO)cc3)c2C(=O)c2c([N+](=O)[O-])ccc(O)c21 was what? false (0)

In this assay, the call recorded for C[C@]12CC[C@H]3C(=CCc4cc(O)ccc43)[C@@H]1CCC2=O was what? true (1)

In this assay, the call recorded for OCC(F)(F)C(F)(F)C(F)(F)C(F)(F)C(F)(F)C(F)(F)C(F)(F)C(F)(F)CO was what? false (0)

In this assay, the call recorded for NC(=O)C(F)(F)C(F)(F)C(F)(F)C(F)(F)C(F)(F)C(F)(F)C(F)(F)F was what? false (0)

In this assay, the call recorded for FC(F)(F)C(F)(F)C(F)(F)C(F)(F)C(F)(F)C(F)(F)CC[Si](Cl)(Cl)Cl was what? false (0)

* * *

# Read-out: Urokinase-type plasminogen activator receptor (uPAR), PLAUR (gene 5329)
# assay.details: BSK_CASM3C_uPAR: BioMAP Diversity Plus: CASM3C Assay for Urokinase-type plasminogen activator receptor (uPAR) Biomarker Activity (AID 2283054);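 note: cell-surface uPAR protein level quantified by ELISA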
# details: primary human coronary artery smooth muscle cells; actives raise or lower the signal
The source made the active and inactive calls. How the source made its calls: active means hit-call score of the fitted dose curve at least 0.9, where 1 is the maximum; inactive means score below 0.9.
Output constraint: value belongs to active, inactive

| mol | group |
| --- | --- |
| Cc1ccc(O)c(-n2nc3ccccc3n2)c1 | inactive |

In this assay, the call recorded for Cc1cc(C)c(O)c(C(C)(C)C)c1 was what? active

In this assay, the call recorded for O=C=Nc1cccc2c(N=C=O)cccc12 was what? inactive

In this assay, the call recorded for CCN(CC)c1ccc(N=Nc2ccccc2)cc1 was what? inactive

In this assay, the call recorded for O=C1C=CC(=O)N1c1ccc(Cc2ccc(N3C(=O)C=CC3=O)cc2)cc1 was what? active

In this assay, the call recorded for O=C(O)C(F)(F)C(F)(F)C(F)(F)OC(F)(F)F was what? inactive

In this assay, the call recorded for O=S(=O)(OCC(F)(F)F)C(F)(F)C(F)(F)C(F)(F)C(F)(F)F was what? inactive

In this assay, the call recorded for O=C(O)CCC(F)(F)C(F)(F)C(F)(F)F was what? inactive

In this assay, the call recorded for CCN(CC)c1ccc2c(c1)Oc1cc(N(CC)CC)ccc1C21OC(=O)c2ccccc21 was what? inactive

In this assay, the call recorded for O=C(O)C(F)(F)OC(F)(F)C(F)(F)OC(F)(F)C(F)(F)OC(F)(F)F was what? inactive

* * *

# Read-out: Interleukin 2 (IL2), IL2 (gene 3558)
# assay.details: BSK_BT_xIL2: BioMAP Diversity Plus: BT Assay for Interleukin 2 (IL2) Biomarker Activity (AID 2284245)
# details: primary human B cells with PBMC
The source made the active and inactive calls. The calls were made as follows: active = hit-call score of the fitted dose curve at least 0.9, where 1 is the maximum; inactive = score below 0.9.
Output constraint: value belongs to active, inactive

Worked examples, 2 compounds total:
| compound | group |
| --- | --- |
| NS(=O)(=O)C(F)(F)C(F)(F)C(F)(F)C(F)(F)C(F)(F)C(F)(F)F | inactive |
| Cc1cc(C)c(O)c(C(C)(C)C)c1 | inactive |

In this assay, the call recorded for O=C=Nc1cccc2c(N=C=O)cccc12 was what? inactive

In this assay, the call recorded for Brc1nc2ccccc2s1 was what? active

In this assay, the call recorded for O=C(Cl)C(F)(F)C(F)(F)C(F)(F)C(F)(F)C(F)(F)C(F)(F)F was what? inactive

In this assay, the call recorded for O=S(=O)(O)CCC(F)(F)C(F)(F)C(F)(F)C(F)(F)C(F)(F)C(F)(F)C(F)(F)C(F)(F)F was what? inactive

In this assay, the call recorded for Cc1ccc(S(=O)(=O)C(I)I)cc1 was what? active

In this assay, the call recorded for NC(=O)C(F)(F)C(F)(F)C(F)(F)C(F)(F)C(N)=O was what? inactive

In this assay, the call recorded for OC(O)C(F)(F)C(F)(F)F was what? inactive

* * *

# Read-out: Thrombomodulin, THBD (gene 7056)
# assay.details: BSK_CASM3C_Thrombomodulin: BioMAP Diversity Plus: CASM3C Assay for Thrombomodulin Biomarker Activity (AID 2283051);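 note: thrombomodulin protein level measured by ELISA 24 h after dosing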
# details: primary human coronary artery smooth muscle cells; actives raise or lower the signal
Activity calls are given as the source filed them. The calls were made as follows: active = hit-call score of the fitted dose curve at least 0.9, where 1 is the maximum; inactive = score below 0.9.

| mol | outcome |
| --- | --- |
| CC(C)(C)c1cc(CCC(=O)NCCCCCCNC(=O)CCc2cc(C(C)(C)C)c(O)c(C(C)(C)C)c2)cc(C(C)(C)C)c1O | inactive |
| O=C(Cl)C(F)(F)C(F)(F)C(F)(F)C(F)(F)C(F)(F)C(F)(F)F | inactive |
| O=C(Cl)C(F)(F)C(F)(F)C(F)(F)C(F)(F)C(F)(F)C(F)(F)C(F)(F)F | inactive |

* * *

# assay.details: BSK_SAg_Proliferation: Cell Proliferation Assessment in the BioMAP Diversity Plus: SAg Assay (AID 2283095);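 note: relative cell number as total protein by SRB absorbance in sub-confluent culture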
# details: primary human HUVEC with PBMC
Active and inactive are the calls of the source. The calls were made as follows: active = hit-call score of the fitted dose curve at least 0.9, where 1 is the maximum; inactive = score below 0.9.

| compound | outcome |
| --- | --- |
| O=C(F)C1(F)C(F)(F)C(F)(F)C(F)(F)C(F)(F)C1(F)F | inactive |
| NC(=O)C(F)(F)C(F)(F)C(F)(F)C(F)(F)C(F)(F)C(F)(F)C(F)(F)F | inactive |
| OCC(O)CC(F)(F)C(F)(F)C(F)(F)C(F)(F)F (centres undefined) | inactive |
| Brc1nc2ccccc2s1 | inactive |

* * *

# assay.details: BSK_3C_Proliferation: Cell Proliferation Assessment in the BioMAP Diversity Plus: 3C Assay (AID 2283006)
# details: primary human endothelial cells (HUVEC)
# Procedure: BSK_3C is a cell-based, multiplexed-readout assay that uses umbilical vein endothelium, a human vascular primary cell, with measurements taken at 24 hours after chemical dosing in a 96-well plate.BSK_3C_Proliferation is an assay component measured in the BSK_3C assay. It measures 0.1% sulforhodamine related to cell proliferation using Sulforhodamine staining technology.Data from the assay component BSK_3C_Proliferation was analyzed into 1 assay endpoint. […]
Activity calls are given as the source filed them. Rule for the calls: active = hit-call score of the fitted dose curve at least 0.9, where 1 is the maximum; inactive = score below 0.9.
Output constraint: value belongs to 1 for active, 0 for inactive

Worked examples, 3 molecules total:
| mol | group |
| --- | --- |
| O=C(F)C1(F)C(F)(F)C(F)(F)C(F)(F)C(F)(F)C1(F)F | 0 |
| O=C1C=CC(=O)N1c1ccc(Cc2ccc(N3C(=O)C=CC3=O)cc2)cc1 | 1 |
| Cc1ccc(S(=O)(=O)C(I)I)cc1 | 1 |

In this assay, the call recorded for CCN(CC)c1ccc(C=O)c(O)c1 was what? 0

In this assay, the call recorded for Cc1cnccn1 was what? 0

In this assay, the call recorded for C[C@]12CC[C@H]3C(=CCc4cc(O)ccc43)[C@@H]1CCC2=O was what? 1

In this assay, the call recorded for O=S(=O)(O)CCC(F)(F)C(F)(F)C(F)(F)C(F)(F)F was what? 0

These entries and their values trace back to PubChem BioAssay (EPA / NIEHS).
